# System Tested: Bs-CspB H29Q (Bacillus subtilis, UniProt P32081 1-67, H29Q)
# Test Description: tryptophan fluorescence quenching
Parameter Measured: Kd
Quick note: number first, unit second.

Query (binder): TTTTTTT (ssDNA) [dT7] ; field requested: Kd 104 nM
